# Test system: Laodelphax striatella
# test_protocol: Reference Test Example 18 Pest control test of Laodelphax striatella (wheat seedling root treatment)
# Type: in vivo
# experimental_setup: wheat seedling roots treated; four days after release; 20 μg/seedling
Recorded Laodelphax striatella (Reference Test Example 18), mortality of larvae values for a group of molecules are listed next.
Please state the figure in %; there is no need to write the unit.

Use these answered entries as a reference point.
Cc1ccc(=NC(=O)C(F)(F)F)n(Cc2ccc(Cl)nc2)c1 ... 75
FC(F)(Cl)C(=S)N=c1ccccn1Cc1ccc(Cl)nc1 ... 100
FC(F)(F)C(F)(F)C(=S)N=c1ccccn1Cc1ccc(Cl)nc1 ... 100
O=C(N=c1ccccn1Cc1ccc(Br)nc1)C(F)F ... 100
O=C(N=c1ccccn1Cc1cnc(Cl)s1)C(F)(F)F ... 100
FC(F)C(=S)N=c1ccccn1Cc1ccc(Cl)nc1 ... 100

Next, consider the following molecule.
### Prompt I would be grateful if you could share the reported Laodelphax striatella (Reference Test Example 18), mortality of larvae for O=C(N=c1c(F)cccn1Cc1ccc(Cl)nc1)C(F)(F)F .
### Response 75

----------
# Test system: Laodelphax striatella
# test_protocol: Reference Test Example 18 Pest control test of Laodelphax striatella (wheat seedling root treatment)
# Format: in vivo
# experimental_setup: wheat seedling roots treated; four days after release; 20 μg/seedling
Recorded Laodelphax striatella (Reference Test Example 18), mortality of larvae values for a group of compounds are listed next.
Be sure to follow the number with its unit.

### Prompt Entry O=C(/N=c1\ccccn1Cc1ccc(F)nc1)C(F)F , system Laodelphax striatella: what Laodelphax striatella (Reference Test Example 18), mortality of larvae was measured?
### Response 80%

### Prompt Next up: O=C(N=c1ccccn1Cc1ccc(Br)nc1)C(F)(F)Cl
### Response 100%

### Prompt Next up: CSCCN=C(N=c1ccccn1Cc1ccc(Cl)nc1)C(F)(F)F
### Response 80%

### Prompt Next up: Cc1ccn(Cc2ccc(Cl)nc2)c(=NC(=O)C(F)(F)F)c1
### Response 100%

### Prompt Next up: O=C(N=c1ccc(F)cn1Cc1ccc(Cl)nc1)C(F)(F)F
### Response 100%

### Prompt Next up: O=C(N=c1ccccn1Cc1cnc(Cl)c(F)c1)C(F)(F)Cl
### Response 100%

### Prompt Next up: O=C(N=c1ccccn1Cc1ccc(F)nc1)C(F)(F)C(F)(F)F
### Response 80%

### Prompt Next up: O=C(N=c1ccccn1Cc1ccc(Cl)nc1)C(Br)Br
### Response 100%

### Prompt Next up: O=C(N=c1ccccn1Cc1ccc(Br)nc1)C(F)(F)C(F)(F)F
### Response 100%

### Prompt Next up: O=C(N=c1ccccn1Cc1cnc(Cl)c(F)c1)C(F)F
### Response 100%

### Prompt Next up: O=C(N=c1ccccn1Cc1ccc(F)nc1)C(F)(F)F
### Response 100%

----------
# Test system: Laodelphax striatella
# test_protocol: Reference Test Example 18 Pest control test of Laodelphax striatella (wheat seedling root treatment)
# Assay type: in vivo
# experimental_setup: wheat seedling roots treated; four days after release; 20 μg/seedling
measurement_kind: Laodelphax striatella (Reference Test Example 18), mortality of larvae
Be sure to follow the number with its unit.

Use these answered entries as a reference point.
O=C(N=c1ccccn1Cc1ccc(Br)nc1)C(F)(F)F ... 100%
O=C(N=c1ccccn1Cc1ccc(Cl)nc1)C(F)(F)C(F)(F)F ... 100%
O=C(N=c1ccccn1Cc1ccc(Cl)nc1)C(F)(F)Cl ... 100%

### Prompt I would be grateful if you could share the reported Laodelphax striatella (Reference Test Example 18), mortality of larvae for O=C(N=c1ccc(Cl)cn1Cc1ccc(Cl)nc1)C(F)(F)F .
### Response 75%

### Prompt Next up: O=C(N=c1ccccn1Cc1ccc(Cl)nc1)C(F)F
### Response 100%

Hey, just so you know, these numbers are from patent US11771086B2.
